Reference for the values: ChEMBL document CHEMBL3390834

Target: UniProt Q8IXJ6
Sequence (Q8IXJ6 whole entry): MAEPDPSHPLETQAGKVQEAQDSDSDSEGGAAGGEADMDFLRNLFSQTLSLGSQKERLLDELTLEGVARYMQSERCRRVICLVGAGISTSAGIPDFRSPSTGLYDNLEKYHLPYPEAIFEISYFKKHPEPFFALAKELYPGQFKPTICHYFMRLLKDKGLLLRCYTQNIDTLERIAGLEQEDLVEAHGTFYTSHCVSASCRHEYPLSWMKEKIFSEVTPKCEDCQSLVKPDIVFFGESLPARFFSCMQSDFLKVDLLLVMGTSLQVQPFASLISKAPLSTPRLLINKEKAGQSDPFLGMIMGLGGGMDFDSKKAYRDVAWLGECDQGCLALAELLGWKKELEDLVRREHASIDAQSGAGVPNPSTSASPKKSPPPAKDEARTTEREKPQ
Test: Inhibition of human SIRT-2 using fluor de Lys as substrate after 2 hrs by fluorescence assay
endpoint-name: IC50 (nM)

1. CCCCCCCCCCC[C@]1(CO)CCCC(=O)O[C@](CO)(CCCCCCCCCCC)CCCC(=O)O1; 176
